system: Streptococcus pneumoniae A28272; experiment: MIC, broth micro dilution assay (NCCLS); type: cell-based; details: 50% Mueller-Hinton medium and 50% Todd Hewitt medium, 35° C., 18 hours
measured.endpoint: MIC (μg/mL) Streptococcus pneumoniae A28272 (µg/mL)
Respond with the bare value in µg/mL.

Give reported MIC (μg/mL) Streptococcus pneumoniae A28272 value for C=C(NC(=O)c1csc(-c2nc3c(cc2OCCN2CCOCC2)-c2nc(cs2)C(=O)NC(C(C)O)C(=O)NC(=C(C)OC)c2nc(cs2)C(=O)NC2c4nc(cs4)C(=O)NC(COC(=O)c4c5c6c(cccc6n4OCCN4CCOCC4)COC(=O)C(OC4CC(C)(O)C(N(C)C)C(C)O4)C2OC5)c2nc-3cs2)n1)C(N)=O (stereo not shown) [Example 26]
0.03

For the compound C=C(NC(=O)c1csc(-c2nc3c(cc2O)-c2nc(cs2)C(=O)NC(C(C)O)C(=O)NC(=C(C)OC)c2nc(cs2)C(=O)NC2c4nc(cs4)C(=O)NC(COC(=O)c4c5c6c(cccc6n4OS(=O)(=O)[O-])COC(=O)C(OC4CC(C)(O)C(N(C)C)C(C)O4)C2OC5)c2nc-3cs2)n1)C(N)=O.[Na+] (stereo not shown) [Example 64] , give its measured MIC (μg/mL) Streptococcus pneumoniae A28272 value.
0.06

Give the reported value of MIC (μg/mL) Streptococcus pneumoniae A28272 for this record: C=C(NC(=O)c1csc(-c2nc3c(cc2O)-c2nc(cs2)C(=O)NC(C(C)O)C(=O)NC(=C(C)OC)c2nc(cs2)C(=O)NC2c4nc(cs4)C(=O)NC(COC(=O)c4c5c6c(cccc6n4OCCN4CCOCC4)COC(=O)C(OC4CC(C)(O)C(N(C)C)C(C)O4)C2OC5)c2nc-3cs2)n1)C(N)=O.O=C(O)C(F)(F)F (stereo not shown) [Example 27]
0.015

Look up and report measured MIC (μg/mL) Streptococcus pneumoniae A28272 for this entry: C=C(NC(=O)c1csc(-c2nc3c(cc2OCC(=O)NCC#N)-c2nc(cs2)C(=O)NC(C(C)O)C(=O)NC(=C(C)OC)c2nc(cs2)C(=O)NC2c4nc(cs4)C(=O)NC(COC(=O)c4c5c6c(cccc6n4OCC(=O)NCC#N)COC(=O)C(OC4CC(C)(O)C(N(C)C)C(C)O4)C2OC5)c2nc-3cs2)n1)C(N)=O (stereo not shown) [Example 70]
0.06

Give me measured MIC (μg/mL) Streptococcus pneumoniae A28272, please, for this compound: C=C(NC(=O)c1csc(-c2nc3c(cc2OCOP(=O)([O-])O)-c2nc(cs2)C(=O)NC(C(C)O)C(=O)NC(=C(C)OC)c2nc(cs2)C(=O)NC2c4nc(cs4)C(=O)NC(COC(=O)c4c5c6c(cccc6n4OCOP(=O)([O-])O)COC(=O)C(OC4CC(C)(O)C(N(C)C)C(C)O4)C2OC5)c2nc-3cs2)n1)C(N)=O.[Na+].[Na+] (stereo not shown) [Example 22]
0.015

For the compound C=C(NC(=O)c1csc(-c2nc3c(cc2OCC(=O)O)-c2nc(cs2)C(=O)NC(C(C)O)C(=O)NC(=C(C)OC)c2nc(cs2)C(=O)NC2c4nc(cs4)C(=O)NC(COC(=O)c4c5c6c(cccc6n4OCC(=O)O)COC(=O)C(OC4CC(C)(O)C(N(C)C)C(C)O4)C2OC5)c2nc-3cs2)n1)C(N)=O.O=C(O)C(F)(F)F (stereo not shown) [Example 20] , give its reported MIC (μg/mL) Streptococcus pneumoniae A28272.
0.5

Identify the reported MIC (μg/mL) Streptococcus pneumoniae A28272 for the following entry. COC(C)=C1NC(=O)C(C(C)O)NC(=O)c2csc(n2)-c2cc(OC)c(-c3nc(C(N)=O)cs3)nc2-c2csc(n2)C2COC(=O)c3c4c5c(cccc5n3OC)COC(=O)C(OC3CC(C)(O)C(N(C)C)C(C)O3)C(OC4)C(NC(=O)c3csc1n3)c1nc(cs1)C(=O)N2 (stereo not shown) [Example 83]
0.03
